Entries annotated with measured pIC50
# assayedSystem: PD-1/PD-L1 (Homo sapiens, UniProt Q9NZQ7)
# Construct: made in house; host or cells: HEK293T
# Sequence (Q9NZQ7 with tags, fused parts or gaps): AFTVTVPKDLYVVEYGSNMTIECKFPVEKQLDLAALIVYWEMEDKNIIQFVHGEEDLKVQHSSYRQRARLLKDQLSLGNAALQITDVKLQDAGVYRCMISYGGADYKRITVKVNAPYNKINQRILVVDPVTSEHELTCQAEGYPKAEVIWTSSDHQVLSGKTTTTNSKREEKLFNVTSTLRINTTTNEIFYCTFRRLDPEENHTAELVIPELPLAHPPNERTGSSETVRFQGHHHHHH
# testSummary: PD-1/PD-L1 Homogenous Time-Resolved Fluorescence (HTRF) binding assay
# testConditions: PD-L1-His 10 nM, PD-1-Ig 20 nM; value given as range class; read-out: Range or IC50
# Procedure: The ability of the compounds of formula (I) to bind to PD-L1 was investigated using a PD-1/PD-L1 Homogenous Time-Resolved Fluorescence (HTRF) binding assay. Homogenous Time-Resolved Fluorescence (HTRF) Binding Assay. All binding studies were performed in an HTRF assay buffer consisting of dPBS supplemented with 0.1% […] bovine serum albumin and 0.05% (v/v) Tween-20. […]
pIC50: −log10 of the molar value.

compound	obsValue
Cc1c(COc2cc(OCc3cncc(C#N)c3)c(CN3CCC[C@H]3C(=O)O)cc2Cl)cccc1-c1cccc(C(=O)N(C)C)c1C [Example 4031]	5.00 to 5.70
CNC(=O)c1cccc(-c2cccc(COc3cc(OCc4cc(F)cc(F)c4)c(C=O)cc3Cl)c2C)c1C [Example 4028]	5.70 to 7.00
CNC(=O)c1cccc(-c2cccc(COc3cc(OCc4cncc(C#N)c4)c(CN4CCCC[C@H]4C(=O)O)cc3Cl)c2C)c1C [Example 4011]	7.00 to 8.00
Cc1c(COc2cc(OCc3cncc(C#N)c3)c(CN[C@](C)(CO)C(=O)O)cc2Cl)cccc1-c1ccc2c(c1C)OCCO2 [Example 3042]	8.00 to 9.68

Exam item: Please give the measured pIC50 for this compound: CCOC(=O)C1(CO)CCN(CCCOc2cccc(-c3cccc(COc4cc(OCc5cncc(C#N)c5)c(CN[C@H](CO)C(=O)O)cc4Cl)c3C)c2C)C1 (some centres unmarked) [Example 1047]
Marked response: 8.00 to 9.68

----------
# assayedSystem: PD-1/PD-L1 (Homo sapiens, UniProt Q9NZQ7)
# Construct: made in house; host or cells: HEK293T
# testSummary: PD-1/PD-L1 Homogenous Time-Resolved Fluorescence (HTRF) binding assay
# testConditions: PD-L1-His 10 nM, PD-1-Ig 20 nM; value given as range class; read-out: Range or IC50
# Experimental: The ability of the compounds of formula (I) to bind to PD-L1 was investigated using a PD-1/PD-L1 Homogenous Time-Resolved Fluorescence (HTRF) binding assay. Homogenous Time-Resolved Fluorescence (HTRF) Binding Assay. All binding studies were performed in an HTRF assay buffer consisting of dPBS supplemented with 0.1% […] bovine serum albumin and 0.05% (v/v) Tween-20. […]
pIC50: −log10 of the molar value.
resultType: pIC50

# annotated cases, reported pIC50 shown
compound	assayedSystem	pIC50
CCOC(=O)C1(O)CCN(CCCOc2cccc(-c3cccc(COc4cc(OCc5cncc(C#N)c5)c(CN[C@](C)(CO)C(=O)O)cc4Cl)c3C)c2Cl)CC1 [Example 1098]	PD-1/PD-L1 (Homo sapiens, UniProt Q9NZQ7)	8.00 to 9.68
Cc1c(COc2cc(OCc3cncc(C#N)c3)c(CN[C@@H](CO)C(=O)O)cc2Cl)cccc1-c1cccc(C(=O)N2CCOCC2)c1C [Example 4055]	PD-1/PD-L1 (Homo sapiens, UniProt Q9NZQ7)	7.00 to 8.00
Cc1c(COc2cc(OCc3cncc(C#N)c3)c(CN3CCCC[C@H]3C(=O)O)cc2Cl)cccc1-c1cccc(OCCCNC[C@H](O)C(=O)O)c1C [Example 2242]	PD-1/PD-L1 (Homo sapiens, UniProt Q9NZQ7)	8.00 to 9.68
Cc1c(COc2cc(OCc3cncc(C#N)c3)c(CN3CCCC[C@H]3C(=O)O)cc2Cl)cccc1-c1cccc(C(=O)NCCN2CC[C@@H](O)C2)c1C [Example 3060]	PD-1/PD-L1 (Homo sapiens, UniProt Q9NZQ7)	7.00 to 8.00
Cc1c(COc2cc(OCc3cncc(C#N)c3)c(CN[C@](C)(CO)C(=O)O)cc2Cl)cccc1-c1cccc(OCCCN2CCC(CO)(C(=O)O)C2)c1Cl (some centres unmarked) [Example 1108]	PD-1/PD-L1 (Homo sapiens, UniProt Q9NZQ7)	8.00 to 9.68
Cc1c(OCCCNC[C@H](O)CO)cccc1-c1cccc(COc2cc(OCc3cncc(C#N)c3)c(CN3CCCC[C@H]3C(=O)O)cc2Cl)c1Cl [Example 2303]	PD-1/PD-L1 (Homo sapiens, UniProt Q9NZQ7)	8.00 to 9.68

Exam item: GET /values?readout=pIC50&item= Cc1c(COc2cc(OCc3cncc(C#N)c3)c(CNC(CO)(CO)CO)cc2Cl)cccc1-c1cccc(OCCCN2CCCC(CO)C2)c1C (centres unmarked) [Example 2284]
Marked response: 8.00 to 9.68

Exam item: Further, for Cc1c(COc2cc(OCc3cncc(C#N)c3)c(CN3CCNC(=O)C3)cc2Cl)cccc1-c1cccc(OCCCN2CC[C@@H](O)C2)c1C [Example 2331] ?
Marked response: 8.00 to 9.68

----------
# assayedSystem: PD-1/PD-L1 (Homo sapiens, UniProt Q9NZQ7)
# Construct: made in house; host or cells: HEK293T
# testSummary: PD-1/PD-L1 Homogenous Time-Resolved Fluorescence (HTRF) binding assay
# testConditions: PD-L1-His 10 nM, PD-1-Ig 20 nM; value given as range class; read-out: Range or IC50
pIC50: −log10 of the molar value.
resultType: pIC50

Exam item: Need pIC50 of CCOC(=O)C1(O)CCN(CCCOc2cccc(-c3cccc(COc4cc(OCc5cncc(C#N)c5)c(CN[C@@H](CO)C(=O)O)cc4Cl)c3C)c2Cl)CC1 [Example 1095] , thanks.
Marked response: 8.00 to 9.68

Exam item: Please answer likewise for Cc1c(COc2cc(OCc3cncc(C#N)c3)c(CN[C@H](CO)C(=O)O)cc2Cl)cccc1-c1cccc(OCC(=O)N2CC[C@H](O)C2)c1 [Example 1003]
Marked response: 7.00 to 8.00

Exam item: What about this molecule? Cc1c(COc2cc(OCc3cncc(C#N)c3)c(CNC(C)(CO)CO)cc2Cl)cccc1-c1cccc(OCCCN2CCC(CO)CC2)c1C [Example 2288]
Marked response: 8.00 to 9.68

Exam item: Next up: Cc1c(COc2cc(OCc3cncc(C#N)c3)c(CO)cc2Cl)cccc1-c1cccc(OCCCNC(CO)(CO)CO)c1Cl [Example 2041]
Marked response: 7.00 to 8.00

Exam item: Do the same for C=CC[C@H](NCc1cc(Cl)c(OCc2cccc(-c3cccc(OCCCN4CC[C@@H](O)C4)c3C)c2C)cc1OCc1cncc(C#N)c1)C(=O)O [Example 4155] please
Marked response: 8.00 to 9.68

----------
# assayedSystem: PD-1/PD-L1 (Homo sapiens, UniProt Q9NZQ7)
# Construct: made in house; host or cells: HEK293T
# testSummary: PD-1/PD-L1 Homogenous Time-Resolved Fluorescence (HTRF) binding assay
# testConditions: PD-L1-His 10 nM, PD-1-Ig 20 nM; value given as range class; read-out: Range or IC50
resultType: IC50

Examples with answers:
compound	IC50
Cc1c(COc2cc(OCc3cncc(C#N)c3)c(CN[C@@](C)(CO)C(=O)O)cc2Cl)cccc1-c1cccc(OCCC(=O)N2CC[C@@H](O)C2)c1 [Example 1010]	0.00021 to 0.01 µM
Cc1c(COc2cc(OCc3cncc(C(N)=O)c3)c(CN[C@](C)(CO)C(=O)O)cc2Cl)cccc1-c1cccc(OCCCN2CCC(CO)(C(=O)O)CC2)c1C [Example 1113]	0.00021 to 0.01 µM
COC(=O)[C@@H]1C[C@@H](O)CN1CCCOc1cccc(-c2cccc(COc3cc(OCc4cncc(S(C)(=O)=O)c4)c(CN[C@](C)(CO)C(=O)O)cc3Cl)c2C)c1Cl [Example 1068]	0.00021 to 0.01 µM
Cc1c(COc2cc(OCc3cncc(C#N)c3)c(CN3CCC[C@H](C(=O)O)C3)cc2Cl)cccc1-c1cccc(OCCCN2CCC[C@H](C(=O)O)C2)c1C [Example 2259]	0.00021 to 0.01 µM
Cc1c(COc2cc(OCc3cncc(C#N)c3)c(CN(C)C(CO)CO)cc2Cl)cccc1-c1cccc(OCCCN2CC[C@@H](O)C2)c1C [Example 2325]	0.00021 to 0.01 µM
Cc1c(COc2cc(OCc3cncc(C#N)c3)c(CN3CCC[C@@H]3CO)cc2Cl)cccc1-c1cccc(OCCCN2CCC[C@@H]2CO)c1F [Example 1534]	0.00021 to 0.01 µM

Exam item: Requested read-out: IC50. Entry: Cc1c(COc2cc(OCc3cncc(C#N)c3)c(CNC[C@H](O)CO)cc2Cl)cccc1-c1cccc(OCCCNC[C@H](O)CO)c1C [Example 2265]
Marked response: 0.00021 to 0.01 µM

Exam item: // same read-out, input: Cc1c(COc2cc(OCc3cncc(C#N)c3)c(CN3CCCC[C@H]3C(=O)O)cc2Cl)cccc1-c1cccc(OCCCN2CCC(C(=O)O)CC2)c1C [Example 2364]
Marked response: 0.00021 to 0.01 µM

Exam item: How about Cc1c(COc2cc(OCc3cncc(C#N)c3)c(CO)cc2Cl)cccc1-c1cccc(OCCCN2CCCCC2)c1Cl [Example 2018] ?
Marked response: 0.00021 to 0.01 µM

Exam item: Then what about the compound Cc1ccc(OCCCN2CC[C@@H](O)C2)cc1-c1cccc(COc2cc(OCc3cncc(C#N)c3)c(CN3CCCC[C@H]3C(=O)O)cc2Cl)c1C [Example 1528] ?
Marked response: 0.00021 to 0.01 µM

Exam item: Moving on to the next compound: CNC(=O)c1cccc(-c2cccc(COc3cc(OCc4cc(F)cc(F)c4)c(CN4C[C@@H](O)C[C@H]4C(=O)O)cc3Cl)c2C)c1C [Example 4026]
Marked response: 0.1 to 2 µM
